# Tested on: Pseudomonas aeruginosa
# Assay Details: In vitro minimum inhibitory concentration for Pseudomonas aeruginosa (ATCC-27853) by agar dilution method
# Type: functional
# Condition Parameters: Pseudomonas aeruginosa; read-out: MIC
In this section we review reported MIC values for a set of compounds.
Readout: MIC (µg/mL)

{"Compound": "C/C=C/[n+]1c(N)cc(N)nc1SCC1=C(C(=O)[O-])N2C(=O)C(NC(=O)/C(=N\\OC(C)(C)C(=O)O)c3cnc(N)s3)C2SC1 (configuration not stated)", "Measurement Unit": "µg/mL", "Reading": 2}
{"Compound": "CC[n+]1c(N)cc(N)nc1SCC1=C(C(=O)[O-])N2C(=O)C(NC(=O)/C(=N\\OC(C)(C)C(=O)O)c3cnc(N)s3)C2SC1 (configuration not stated)", "Measurement Unit": "µg/mL", "Reading": 1}
{"Compound": "CC(C)(O/N=C(\\C(=O)NC1C(=O)N2C(C(=O)[O-])=C(CSc3nc(N)c4c([n+]3N)CCC4)CSC12)c1cnc(N)s1)C(=O)O (configuration not stated)", "Measurement Unit": "µg/mL", "Reading": 2}
{"Compound": "Cc1c(N)nc(SCC2=C(C(=O)[O-])N3C(=O)C(NC(=O)/C(=N\\OC(C)(C)C(=O)O)c4cnc(N)s4)C3SC2)[n+]2ncn(C)c12 (configuration not stated)", "Measurement Unit": "µg/mL", "Reading": 2}
{"Compound": "CC(C)(O/N=C(\\C(=O)NC1C(=O)N2C(C(=O)[O-])=C(CSc3nc(N)cc(N)[n+]3C3CC3)CSC12)c1cnc(N)s1)C(=O)O (configuration not stated)", "Measurement Unit": "µg/mL", "Reading": 2}
{"Compound": "Cc1cccc(C)c1-[n+]1c(N)cc(N)nc1SCC1=C(C(=O)[O-])N2C(=O)C(NC(=O)/C(=N\\OC(C)(C)C(=O)O)c3cnc(N)s3)C2SC1 (configuration not stated)", "Measurement Unit": "µg/mL", "Reading": 4}
{"Compound": "CNc1cc2n(C)cc[n+]2c(SCC2=C(C(=O)[O-])N3C(=O)C(NC(=O)/C(=N\\OC(C)(C)C(=O)O)c4cnc(N)s4)C3SC2)n1 (configuration not stated)", "Measurement Unit": "µg/mL", "Reading": 4}
{"Compound": "CCC[n+]1c(N)cc(N)nc1SCC1=C(C(=O)[O-])N2C(=O)C(NC(=O)/C(=N\\OC(C)(C)C(=O)O)c3cnc(N)s3)C2SC1 (configuration not stated)", "Measurement Unit": "µg/mL", "Reading": 2}
{"Compound": "C[n+]1ccc(N)nc1SCC1=C(C(=O)[O-])N2C(=O)C(NC(=O)/C(=N\\OC(C)(C)C(=O)O)c3cnc(N)s3)C2SC1 (configuration not stated)", "Measurement Unit": "µg/mL", "Reading": 1}
{"Compound": "Cn1c(O)c[n+]2c(SCC3=C(C(=O)[O-])N4C(=O)C(NC(=O)/C(=N\\OC(C)(C)C(=O)O)c5cnc(N)s5)C4SC3)nc(N)cc12 (configuration not stated)", "Measurement Unit": "µg/mL", "Reading": 4}
{"Compound": "Cc1ccc(-[n+]2c(N)cc(N)nc2SCC2=C(C(=O)[O-])N3C(=O)C(NC(=O)/C(=N\\OC(C)(C)C(=O)O)c4cnc(N)s4)C3SC2)c(C)c1 (configuration not stated)", "Measurement Unit": "µg/mL", "Reading": 2}
{"Compound": "CC(C)(O/N=C(\\C(=O)NC1C(=O)N2C(C(=O)[O-])=C(CSc3nc(N)cc(N)[n+]3N)CSC12)c1cnc(N)s1)C(=O)O (configuration not stated)", "Measurement Unit": "µg/mL", "Reading": 1}
{"Compound": "CC(C)(O/N=C(\\C(=O)NC1C(=O)N2C(C(=O)[O-])=C(CSc3nc(N)cc(N)[n+]3-c3ccccc3)CSC12)c1cnc(N)s1)C(=O)O (configuration not stated)", "Measurement Unit": "µg/mL", "Reading": 2}
{"Compound": "CCCC[n+]1c(N)cc(N)nc1SCC1=C(C(=O)[O-])N2C(=O)C(NC(=O)/C(=N\\OC(C)(C)C(=O)O)c3cnc(N)s3)C2SC1 (configuration not stated)", "Measurement Unit": "µg/mL", "Reading": 4}
{"Compound": "CC(C)(O/N=C(\\C(=O)N[C@@H]1C(=O)N2C(C(=O)[O-])=C(C[n+]3ccccc3)CS[C@H]12)c1csc(N)n1)C(=O)O", "Measurement Unit": "µg/mL", "Reading": 1}
{"Compound": "CC(C)(O/N=C(\\C(=O)NC1C(=O)N2C(C(=O)O)=C(CSc3nc(N)cc(N)n3)CSC12)c1cnc(N)s1)C(=O)O (configuration not stated)", "Measurement Unit": "µg/mL", "Reading": 2}
{"Compound": "CN(C)c1cc2n(C)cc[n+]2c(SCC2=C(C(=O)[O-])N3C(=O)C(NC(=O)/C(=N\\OC(C)(C)C(=O)O)c4cnc(N)s4)C3SC2)n1 (configuration not stated)", "Measurement Unit": "µg/mL", "Reading": 4}
{"Compound": "CC(C)(O/N=C(\\C(=O)NC1C(=O)N2C(C(=O)[O-])=C(CSc3nc(N)cc[n+]3N)CSC12)c1cnc(N)s1)C(=O)O (configuration not stated)", "Measurement Unit": "µg/mL", "Reading": 1}
{"Compound": "CCn1cc[n+]2c(SCC3=C(C(=O)[O-])N4C(=O)C(NC(=O)/C(=N\\OC(C)(C)C(=O)O)c5cnc(N)s5)C4SC3)nc(N)cc12 (configuration not stated)", "Measurement Unit": "µg/mL", "Reading": 2}
{"Compound": "COc1cc(N)nc(SCC2=C(C(=O)[O-])N3C(=O)C(NC(=O)/C(=N\\OC(C)(C)C(=O)O)c4cnc(N)s4)C3SC2)[n+]1C (configuration not stated)", "Measurement Unit": "µg/mL", "Reading": 2}
{"Compound": "CC(C)(O/N=C(\\C(=O)NC1C(=O)N2C(C(=O)O)=C(CSc3nccc(N)n3)CSC12)c1cnc(N)s1)C(=O)O (configuration not stated)", "Measurement Unit": "µg/mL", "Reading": 8}
{"Compound": "CC(C)(O/N=C(\\C(=O)NC1C(=O)N2C(C(=O)O)=C(CSc3nc(O)cc(O)n3)CSC12)c1cnc(N)s1)C(=O)O (configuration not stated)", "Measurement Unit": "µg/mL", "Reading": 32}
